Measured values drawn from paper PMC10247784 for this set.

# TARGET_OR_TEST_SYSTEM: human TAS2R14 (Homo sapiens)
# Construct: expressed in transfected cells; host or cells: HEK293T-Gα16gust44
# Sequence (Q9NYV8 1-317): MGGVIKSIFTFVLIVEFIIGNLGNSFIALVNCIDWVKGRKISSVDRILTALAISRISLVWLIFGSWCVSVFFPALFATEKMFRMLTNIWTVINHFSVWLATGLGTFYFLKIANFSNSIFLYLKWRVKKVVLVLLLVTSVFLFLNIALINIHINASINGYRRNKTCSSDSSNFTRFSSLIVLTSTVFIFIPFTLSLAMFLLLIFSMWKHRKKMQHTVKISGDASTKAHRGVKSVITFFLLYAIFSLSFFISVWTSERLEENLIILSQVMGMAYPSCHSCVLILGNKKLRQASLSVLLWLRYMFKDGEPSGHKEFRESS
# ASSAY_OVERVIEW: Calcium imaging assay (FLIPR), HEK293T-Gα16gust44 cells transfected with human TAS2R14
# Format: cell-based
# CONDITION_LABEL: TAS2R14 trace; Time (s) 128.797 (Chenodeoxycholic Acid 128.781)
# Procedure: This set of bile acids was chosen because of their commercial availability in high purities, their diversity within the class of bile acids and their previous detection and quantitation in human blood. Stock solutions were prepared in DMSO. […] Measured data were negative control corrected by subtracting the signal of the mock-transfected cells and exported to Microsoft Excel using the FLIPR software ScreenWorks 4.2. […]

{"columns": ["MOLECULE_SMILES", "RLU / RLU"],
 "data": [
  ["C[C@H](CCC(=O)NCC(=O)O)[C@H]1CC[C@H]2[C@@H]3[C@H](O)C[C@@H]4C[C@H](O)CC[C@]4(C)[C@H]3C[C@H](O)[C@]12C", 931.219],
  ["C[C@H](CCC(=O)O)[C@H]1CC[C@H]2[C@@H]3[C@H](O)C[C@@H]4C[C@H](O)CC[C@]4(C)[C@H]3C[C@H](O)[C@]12C", 1291.8],
  ["C[C@H](CCC(=O)NCCS(=O)(=O)O)[C@H]1CC[C@H]2[C@@H]3[C@H](O)C[C@@H]4C[C@H](O)CC[C@]4(C)[C@H]3C[C@H](O)[C@]12C", 1043.78],
  ["C[C@H](CCC(=O)O)[C@H]1CC[C@H]2[C@@H]3[C@H](O)C[C@@H]4C[C@H](O)CC[C@]4(C)[C@H]3CC[C@]12C", 465.396],
  ["C[C@H](CCC(=O)NCCS(=O)(=O)O)[C@H]1CC[C@H]2[C@@H]3CC[C@@H]4C[C@H](O)CC[C@]4(C)[C@H]3CC[C@]12C", 394.724]
]}
